biological target: Recombinant human HDAC3/SMRT heterodimer (Homo sapiens); construct: FLAG (C); made in house; assay: Human HDAC enzyme inhibitor Fluor-de-Lys assay, HDAC3/SMRT; assay type: biochemical; conditions: recombinant human HDAC3/SMRT, Fluor-de-Lys assay
Sequence (O15379 whole entry): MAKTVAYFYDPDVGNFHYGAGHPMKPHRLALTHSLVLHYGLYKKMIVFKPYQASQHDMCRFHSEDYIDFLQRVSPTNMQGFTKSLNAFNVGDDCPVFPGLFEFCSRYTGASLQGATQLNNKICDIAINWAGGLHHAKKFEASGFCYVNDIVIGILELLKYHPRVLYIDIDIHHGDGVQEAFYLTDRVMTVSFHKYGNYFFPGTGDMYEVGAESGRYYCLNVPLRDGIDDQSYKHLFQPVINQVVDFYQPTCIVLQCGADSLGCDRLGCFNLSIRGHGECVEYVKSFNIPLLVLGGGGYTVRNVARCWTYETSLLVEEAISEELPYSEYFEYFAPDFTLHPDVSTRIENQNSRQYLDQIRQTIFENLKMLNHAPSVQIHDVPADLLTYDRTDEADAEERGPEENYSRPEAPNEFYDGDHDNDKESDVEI
Sequence (Q9Y618 1-899 partner limits assumed): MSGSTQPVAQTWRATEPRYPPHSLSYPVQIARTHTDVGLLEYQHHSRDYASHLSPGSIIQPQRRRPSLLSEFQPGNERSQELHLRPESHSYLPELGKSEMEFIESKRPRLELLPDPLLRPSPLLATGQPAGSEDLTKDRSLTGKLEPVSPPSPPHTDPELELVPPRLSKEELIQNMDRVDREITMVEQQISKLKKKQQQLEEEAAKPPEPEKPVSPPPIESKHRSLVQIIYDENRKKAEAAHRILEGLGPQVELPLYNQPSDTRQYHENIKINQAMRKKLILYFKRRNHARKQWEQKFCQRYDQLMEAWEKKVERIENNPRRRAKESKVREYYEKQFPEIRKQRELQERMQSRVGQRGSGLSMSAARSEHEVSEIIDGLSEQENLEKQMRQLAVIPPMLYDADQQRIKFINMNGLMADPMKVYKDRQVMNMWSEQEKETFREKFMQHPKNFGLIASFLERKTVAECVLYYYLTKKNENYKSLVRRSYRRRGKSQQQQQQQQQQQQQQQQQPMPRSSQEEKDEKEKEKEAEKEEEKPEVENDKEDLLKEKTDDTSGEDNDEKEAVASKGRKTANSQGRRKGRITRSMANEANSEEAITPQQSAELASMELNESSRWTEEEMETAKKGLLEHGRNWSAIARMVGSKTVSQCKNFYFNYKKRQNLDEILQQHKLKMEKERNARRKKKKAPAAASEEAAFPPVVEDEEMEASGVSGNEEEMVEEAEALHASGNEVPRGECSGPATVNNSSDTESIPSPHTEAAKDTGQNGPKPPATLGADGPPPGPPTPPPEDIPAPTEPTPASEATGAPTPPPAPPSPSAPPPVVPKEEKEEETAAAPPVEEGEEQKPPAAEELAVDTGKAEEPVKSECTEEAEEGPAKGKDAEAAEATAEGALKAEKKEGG
Recorded Endpoint: IC50 (nM)
Only the number, expressed in nM, is required.

input: Read the entry CCC(=O)CCCCC[C@H](NC(=O)C1=NOC2(CCN(S(C)(=O)=O)CC2)C1)c1ncc(-c2ccccc2)[nH]1 [Compound 383] and write its reported IC50.
output: 16.7

input: Read the entry CCC(=O)CCCCC[C@H](NC(=O)[C@H]1CC[C@]2(CC1)OC(=O)c1ccncc12)c1ncc(-c2ccccc2)[nH]1 [Compound 376] and write its reported IC50.
output: 9.02

input: Read the entry CCC(=O)CCCCC[C@H](NC(=O)[C@H]1CC[C@]2(CC1)OC(=O)c1cccnc12)c1ncc(-c2ccccc2)[nH]1 [Compound 378] and write its reported IC50.
output: 7.08

input: Read the entry CCC(=O)CCCCC[C@H](NC(=O)[C@H]1CC[C@]2(CC1)OC(=O)c1ncccc12)c1nnc(-c2cc3ccccc3nc2OC)o1 [Compound 367] and write its reported IC50.
output: 10.7

input: Read the entry CCC(=O)CCCCC[C@H](NC(=O)C1=NOC2(CCN(C)CC2)C1)c1ncc(-c2ccc(-c3ccncc3)cc2OC)o1 [Compound 395] and write its reported IC50.
output: 6.78

input: Read the entry CCCC(=O)CCCCC[C@H](NC(=O)[C@H]1CC12CCN(C)CC2)c1ncc(-c2ccc(F)cc2)[nH]1 [Compound 239] and write its reported IC50.
output: 15.3

input: Read the entry CCC(=O)CCCCC[C@@H](NC(=O)C1CCC2(CC1)CNC2)c1ncc(-c2ccccc2)[nH]1 [Compound 298] and write its reported IC50.
output: 10.4

input: Read the entry CCC(=O)CCCCC[C@H](NC(=O)C1=NOC2(CCN(CC)CC2)C1)c1ncc(-c2cc3ccc(C)nc3cc2F)o1 [Compound 269] and write its reported IC50.
output: 8.3

input: Read the entry CCC(=O)CCCCC[C@H](NC(=O)C1=NOC2(CCN(C)CC2)C1)c1ncc(-c2cc3ccncc3cc2OC)o1 [Compound 415] and write its reported IC50.
output: 7.82

input: Read the entry CCC(=O)CCCCC[C@H](NC(=O)[C@H]1CC[C@@]2(CC1)OC(=O)c1ncccc12)c1ncc(-c2ccccc2)[nH]1 [Compound 374] and write its reported IC50.
output: 15.8
